Where do these numbers come from? They come from patent US20150165400A1.

Test: Pharmacokinetic study of artemisinin, plasma level by HPLC
Format: in vivo, albino wistar rats
Details: albino Wistar, rat, plasma, po, 100 mg, rats, 100 mg artemisinin in 0.5% aqueous CMC, plasma, read-out: average maximum concentration (Cmax)
Reported property: Cmax (µg/mL)
Respond with the bare value in µg/mL.

q: Quick check: Cmax of C[C@@H]1CC[C@H]2[C@@H](C)C(=O)O[C@@H]3O[C@@]4(C)CC[C@@H]1[C@]32OO4 [triclinic form, artemisinin] ?
a: 31
